Taken from ChEMBL document CHEMBL5143633.

System: ACHN
PROCEDURE DETAILS: Cytotoxicity against human ACHN cells assessed as cell growth inhibition incubated for 48 hrs by SRB method
Type: functional, cell-based
Structures can show the parent of a compound that is named as a salt.
MEASURED ATTRIBUTE: IC50

COMPOUND | EXPERIMENTAL VALUE
COc1cccc2c1C(=O)c1c(O)c3c(c(O)c1C2=O)C[C@@](O)(C(=O)CO)C[C@@H]3O[C@H]1C[C@H](N)[C@H](O)[C@H](C)O1 [DOXORUBICIN HYDROCHLORIDE] | 0.17 µM
CC(=O)c1cccc2nc3c(C(=O)O[C@H](C)c4cccc5nc6c(C(=O)O)cccc6nc45)cccc3nc12 | 0.072 µM
C[C@@H](c1cc(C(=O)O)c2nc3cccc([C@@H](C)O)c3nc2c1)c1cccc2nc3c(C(=O)O)cccc3nc12 | > 10 µM
C[C@@H](O)c1cccc2nc3c(C(=O)O)cccc3nc12 | > 10 µM

Give measured IC50 for every item shown.
1. C[C@H](c1cc([C@@H](C)O)c2nc3cccc(C(=O)O)c3nc2c1)c1cccc2nc3c(C(=O)O)cccc3nc12
2. C[C@@H](OC(=O)c1ccccc1N)c1cccc2nc3c(C(=O)O)cccc3nc12
3. C[C@H](c1cccc2nc3c(C(=O)O)cccc3nc12)c1ccc(C(=O)O)c2nc3cccc([C@@H](C)O)c3nc12
4. C[C@@H](O)c1cccc2nc3c(C(=O)O[C@H](C)c4cccc5nc6c(C(=O)O)cccc6nc45)cccc3nc12
5. CC(=O)c1cccc2nc3c(C(=O)O)ccc([C@H](C)c4cccc5nc6c(C(=O)O)cccc6nc45)c3nc12
6. C[C@@H](c1cccc2nc3c(C(=O)O)cccc3nc12)c1ccc(C(=O)O)c2nc3cccc([C@@H](C)O)c3nc12

1. > 10 µM
2. > 10 µM
3. > 10 µM
4. 0.014 µM
5. > 10 µM
6. > 10 µM

---

Tested on: HCT-15
PROCEDURE DETAILS: Cytotoxicity against human HCT-15 cells assessed as cell growth inhibition incubated for 48 hrs by SRB method
Type: functional, cell-based
APPLIED CONDITIONS: HCT-15, 48 h
pIC50: −log10 of the molar value. Counter-ions that a name gives are not always drawn.
MEASURED ATTRIBUTE: pIC50

COMPOUND | SYSTEM | pIC50
C[C@@H](OC(=O)c1ccccc1N)c1cccc2nc3c(C(=O)O)cccc3nc12 | HCT-15 | < 5.00
COc1cccc2c1C(=O)c1c(O)c3c(c(O)c1C2=O)C[C@@](O)(C(=O)CO)C[C@@H]3O[C@H]1C[C@H](N)[C@H](O)[C@H](C)O1 [DOXORUBICIN HYDROCHLORIDE] | HCT-15 | 6.77
C[C@@H](c1cc(C(=O)O)c2nc3cccc([C@@H](C)O)c3nc2c1)c1cccc2nc3c(C(=O)O)cccc3nc12 | HCT-15 | < 5.00

Would you be so kind as to report pIC50 for each listed record?
1. CC(=O)c1cccc2nc3c(C(=O)O)ccc([C@H](C)c4cccc5nc6c(C(=O)O)cccc6nc45)c3nc12
2. C[C@@H](O)c1cccc2nc3c(C(=O)O[C@H](C)c4cccc5nc6c(C(=O)O)cccc6nc45)cccc3nc12
3. C[C@H](c1cccc2nc3c(C(=O)O)cccc3nc12)c1ccc(C(=O)O)c2nc3cccc([C@@H](C)O)c3nc12
4. C[C@H](c1cc([C@@H](C)O)c2nc3cccc(C(=O)O)c3nc2c1)c1cccc2nc3c(C(=O)O)cccc3nc12

["< 5.00", 8.00, "< 5.00", "< 5.00"]
